Attribute: Dmax
target: BRAF V600E (Homo sapiens, UniProt P15056, V600E); construct: expressed in transfected cells; assay: Cellular assay of target protein degradation, T-Rex 293 cells stably transfected with HA-BRAF_V600E (HA immunofluorescence, high content imaging); type: cell-based; details: maximum degradation observed, T-Rex 293 HA-BRAF V600E
Sequence (P15056 whole entry V600E): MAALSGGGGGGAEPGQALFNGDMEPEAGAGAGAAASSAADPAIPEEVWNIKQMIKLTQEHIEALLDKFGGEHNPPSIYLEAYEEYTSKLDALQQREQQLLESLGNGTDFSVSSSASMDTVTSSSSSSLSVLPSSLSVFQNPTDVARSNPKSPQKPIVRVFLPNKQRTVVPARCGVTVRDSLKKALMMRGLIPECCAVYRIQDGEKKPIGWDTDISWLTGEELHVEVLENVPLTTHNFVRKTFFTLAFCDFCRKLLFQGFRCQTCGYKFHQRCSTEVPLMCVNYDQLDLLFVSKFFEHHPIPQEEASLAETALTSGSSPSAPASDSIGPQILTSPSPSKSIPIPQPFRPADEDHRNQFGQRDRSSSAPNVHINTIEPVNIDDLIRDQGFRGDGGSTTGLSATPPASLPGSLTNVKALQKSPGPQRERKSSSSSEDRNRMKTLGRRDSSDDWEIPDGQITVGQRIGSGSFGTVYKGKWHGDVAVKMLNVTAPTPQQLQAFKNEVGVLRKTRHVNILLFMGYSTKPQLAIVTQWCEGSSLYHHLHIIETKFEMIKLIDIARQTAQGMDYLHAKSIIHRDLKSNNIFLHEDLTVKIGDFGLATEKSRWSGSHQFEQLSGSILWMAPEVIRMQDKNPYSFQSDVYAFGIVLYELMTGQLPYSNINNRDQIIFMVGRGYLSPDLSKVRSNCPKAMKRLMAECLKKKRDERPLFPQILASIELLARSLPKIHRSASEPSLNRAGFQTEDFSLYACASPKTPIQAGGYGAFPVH

>  <Compound>
CC1(N2Cc3cc(C4CCN(CC5CCN(c6ccc(-c7cnc8[nH]cc(C(=O)c9c(F)ccc(NS(=O)(=O)N%10CC[C@@H](F)C%10)c9F)c8c7)cc6)CC5)CC4)ccc3C2=O)CCC(=O)NC1=O (stereo partly drawn)

>  <Target Desc>
BRAF V600E (Homo sapiens, UniProt P15056, V600E)

>  <Observation Type>
Dmax

>  <Obs Value>
< 35%

$$$$

For the compound shown here, O=C1CC[C@@H](N2Cc3cc(N4CCC(CN5CCN(c6ccc(-c7cnc8[nH]cc(C(=O)c9c(F)ccc(NS(=O)(=O)N%10CC[C@@H](F)C%10)c9F)c8c7)cc6)CC5)CC4)ccc3C2=O)C(=O)N1 , give the reported Dmax. 35 to 70%

# input compound: COc1cc(OCCCCN2CCN(c3ccc(-c4cnc5[nH]cc(C(=O)c6c(F)ccc(NS(=O)(=O)N7CC[C@@H](F)C7)c6F)c5c4)cc3)CC2)cc2c1C(=O)N(C1CCC(=O)NC1=O)C2 (stereo partly drawn) ; wanted: its Dmax 35 to 70%
